- Tested on: pigweed (Amaranthus retroflexus)
- assay.name: Test D pre-/postemergence plant response
- Type: in vivo
- applied.conditions: Preemergence; 31 g ai/ha; scale 0 to 100 (0 no effect, 100 complete control)
result.type: Plant response rating, Pigweed
Lab note: jot down the number only; don't add units.

record.smiles	measured.value
COc1cccc(Oc2ncc(Cl)cn2)c1-c1cc(C(F)(F)F)no1	100
Fc1cccc(Oc2ncc(Br)cn2)c1-c1cc(C(F)F)on1	100
N#Cc1cccc(Oc2ncc(Cl)cn2)c1-c1cc(C(F)(F)F)on1	100
FC(F)(Cl)c1cc(-c2ccccc2Oc2ncc(Cl)cn2)no1	100
FC(F)Oc1cccc(Oc2ncc(Cl)cn2)c1-c1cc(C(F)F)on1	100

// below: Plant response rating, Pigweed requested for another compound
Quick one: Plant response rating, Pigweed for `FCc1cc(-c2c(F)cccc2Oc2ncc(Cl)cn2)no1` ?
85
